Where do the numbers come from? From ChEMBL document CHEMBL1149285.

Test system: Vero
Test: Cytotoxicity against Vero cells at 23.8 ug/mL by Neutral red assay
Assay type: cell-based
Conditions: chlorocebus sabaeus
outcomeMeasure: Activity

>>> result("N#CCC(=O)N/N=C\\c1ccc(OCC(=O)Nc2ccc(F)cc2)cc1")
"Non-toxic"
>>> result("Cc1cccc(NC(=O)CCC(=O)N/N=C/c2cc(Cl)ccc2O)c1")
"Non-toxic"
>>> result("O=C(Cn1nnc(-c2ccccc2)n1)N/N=C1\\C(=O)Nc2ccccc21")
"Non-toxic"
>>> result("O=C(N/N=C/c1ccc(/C=N/NC(=O)c2ccccc2O)cc1)c1ccccc1O")
"Non-toxic"
>>> result("CCCc1cc(=O)[nH]c(SCC(=O)Nc2ccccc2)n1")
"Non-toxic"
>>> result("CCOP(=O)(CC(=O)NNC(=O)Nc1cccc2ccccc12)OCC")
"Non-toxic"
